Give measured kon for each item. Keep answers brief.
- Experimental Target: T1, recombinant cynomolgus CLL-1 extracellular domain (ECD, amino acids 65-265) fused to an N-terminal Flag (cynomolgus monkey)
- T1 construct: Construct stated for the immunogen; also called CynoCLL-1 Flag; cynoCLL-1
- T1 chain: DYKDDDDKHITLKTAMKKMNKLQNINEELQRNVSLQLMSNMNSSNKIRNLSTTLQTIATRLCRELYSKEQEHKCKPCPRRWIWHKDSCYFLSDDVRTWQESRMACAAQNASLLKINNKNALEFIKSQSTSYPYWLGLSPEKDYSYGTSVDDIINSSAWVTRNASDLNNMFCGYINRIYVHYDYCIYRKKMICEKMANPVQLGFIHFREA
- Procedure Details: SPR (Biacore), chimeric IgG captured by anti-human IgG, CLL-1 as analyte
Field: numeric (M⁻¹ s⁻¹). Do not append units.

Query: Look up kon: ch21C9 (antibody, V domains shown, chimeric version of m21C9, human IgG; also called chimeric 21C9; Chimeric 21C9) VH: EVQLQQSGPELVKPGASVKMSCKASGYTFTDYYLDWVKQSHGESFEWIGRVNPYNGGTIYNQKFKGKATLTVDKSSSTAYMDLNSLTSEDSAVYYCARDHYRYDPLLDYWGQGTTLTVSS VL: DIQMTQSHKFMSTSVGDRVSITCKASQDVSTAVAWFQQKPGQSPKLLIYSPSYRYTGVPDRFTGSGSGTDFTFTISSVQAEDLAVYYCQQLYSTPYTFGGGTKLEIK
Reply: 160000

Query: # input binder: ch28H12 (antibody, V domains shown, chimeric version of m28H12, human IgG; also called chimeric 28H12) VH: QVQLQQSGAELVKPGASVKLSCTASGFNIKDTYMHWVKQRPEQGLEWIGRIDPANGDTDYDPKFQGKATVTADTSSNTAYLQLSSLTSEDTAVYYCTISGPPYYVMDYWGQGTSVTVSS VL: DIQMTQSPASLAVSLGQRATISCRASQSVSSSSYSYMHWYQQKPGQPPKLLIKYASNLESGVPARFSGRGSGTDFTLNIHPVEEEDTATYYCQHSWEIPYTFGGGTRLEIK ; wanted: its kon
Reply: 670000

Query: # input binder: ch6E7 (antibody, V domains shown, chimeric version of m6E7, human IgG; also called chimeric 6E7; Chimeric 6E7) VH: QVQLQQSGPELVKPGASVKISCKASGYSFTDYYMHWVKQSHIKSLEWIGRINPYNGAAFYSQNFKDKASLTVDKSSSTAYMELHSLTSEDSAVYYCAIERGADLEGYAMDYWGQGTSVTVSS VL: DIVLTQSPSSLIVSLGQRATISCRASQSVSTSSYNYMHWYQQKPGQPPKLLLKYASNLESGVPARFSGSGSGTDFTLNIHPVEEEDTATYYCQHSWEIPLTFGAGTKLEIK ; wanted: its kon
Reply: 400000

Query: Requested read-out: kon. Entry: ch20B1 (antibody, V domains shown, chimeric version of m20B1, human IgG; also called chimeric 20B1; 2061 [sic]) VH: EVQLQQSGPELVKPGALVKISCKASGYTFTSYDINWLKQRPGQGLEWIGWIYPGDGTTEYNERFKGKATLTADKSSSTAYLQLSSLTSENSAVYFCARSYDYDYAMDYWGQGTSVTVSS VL: DIVLTQSPAIMSASPGEKVTMTCSASSSISYMYWYQQKPGTSPKRWIYDTSKLASGVPARFSGSGSGTSYSLTISSMEAEDAATYYCHQRSSWTFGGGTKLEIK
Reply: 190000
